experiment: chemical genetic growth profiling, strain panel (AID 1159580);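 note: tested at 20 µM; growth read once vehicle control cultures reached saturation at 30 °C; 1 = growth at the plate median or of vehicle wells; lower values mean less growth of the strain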; conditions: S. cerevisiae deletion strains, growth OD, locus YOR231W, strain MKK1, active compounds read low
In all, about 5,500 compounds went through this assay and about 2,000 (36%) were called active. Roughly 18% stayed inconclusive and do not appear here. The list shows a part of the results.
ENDPOINT NAME: normalized growth
I'd appreciate a reply containing only the number, no unit.

Any idea what its normalized growth is? The compound is O=C(Nc1ccccc1)c1ccccc1O
0.929

Any idea what its normalized growth is? The compound is NNC(=O)c1csc(Cc2c(Cl)sc3ccc(Cl)cc23)n1
0.986

Any idea what its normalized growth is? The compound is O=c1cc(-c2ccccc2)oc2cc(O)c(O)c(O)c12
0.68

Any idea what its normalized growth is? The compound is O=C(Nc1ccc(F)c(Cl)c1)c1ccccc1O
0.829

Any idea what its normalized growth is? The compound is CCOC(=O)[C@H](CCc1ccccc1)N[C@@H](C)C(=O)N1Cc2ccccc2C[C@H]1C(=O)O
0.974

Any idea what its normalized growth is? The compound is O=c1cc(-c2ccccc2)oc2cccc(O)c12
1.01

----------
experiment: chemical genetic growth profiling, strain panel (AID 1159580);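 note: tested at 20 µM; growth read once vehicle control cultures reached saturation at 30 °C; 1 = growth at the plate median or of vehicle wells; lower values mean less growth of the strain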; settings: S. cerevisiae deletion strains, growth OD, locus YMR223W, strain ubp8, active compounds read low
Hit rate of the full screen: of about 5,500 compounds, about 2,000 (36%) were called active. Another 18% or so got no clear call; they are omitted. This is one part of the list. Where a SMILES comes first, the peptide text is derived from it.
Field: normalized growth. Provide a value for each of the compounds that follow.
I'd appreciate a reply containing only the number, no unit.

Any idea what its normalized growth is? The compound is CC1(C)C(O)CC(O)C2(C)C1CC(O)C1(C)C2CCC2(C)C(c3ccoc3)OC(=O)C3OC321 (stereo unspecified)
1.02

Any idea what its normalized growth is? The compound is CC(=O)O[C@H]1C[C@@H](OC(C)=O)C(C)(C)C2CC(=O)[C@]3(C)C(CC[C@@]4(C)[C@H](c5ccoc5)OC(=O)[C@H]5O[C@]543)[C@]21C (stereo partly specified)
1.01

Any idea what its normalized growth is? The compound is N[C@H](Cc1cc(I)c(Oc2ccc(O)c(I)c2)c(I)c1)C(=O)O
0.934

Any idea what its normalized growth is? The compound is CC1CCC2(OC1)OC1CC3C4CCC5C[C@@H](O)CCC5(C)C4=CCC3(C)C1[C@@H]2C (stereo partly specified)
0.994

Any idea what its normalized growth is? The compound is O=c1[nH]cnc2[nH]ncc12
1.01

Any idea what its normalized growth is? The compound is O=c1cc(-c2ccccc2)oc2cc(O)c(O)c(O)c12
0.464

Any idea what its normalized growth is? The compound is COC(=O)CCC(=O)O[C@H]1CCC2(C)C(CCC3C2C(=O)[C@@H](O)C2(C)C3CC3OC4(CCC(C)CO4)[C@@H](C)C32)C1 (stereo partly specified)
1

Any idea what its normalized growth is? The compound is Cc1cc(O)c(C)c2c1C(=O)Oc1c(C)c(O)c(C(=O)O)c(C)c1O2
0.966

Any idea what its normalized growth is? The compound is CN(C)N=Nc1nc[nH]c1C(N)=O
0.988

Any idea what its normalized growth is? The compound is COc1c2ccccc2nc2occc12
0.912

Any idea what its normalized growth is? The compound is N[C@@H]1[C@@H](O)[C@H](O)[C@@H](CO)O[C@H]1O
1.02

Any idea what its normalized growth is? The compound is CN[C@@H]1[C@H](OC2[C@H](O[C@H]3[C@H](O)[C@@H](O)[C@H](N=C(N)N)[C@@H](O)[C@@H]3N=C(N)N)O[C@@H](C)[C@]2(O)C=O)O[C@@H](CO)[C@H](O)[C@H]1O (stereo partly specified)
1.02

Any idea what its normalized growth is? The compound is CC(=O)N=c1sc(S(N)(=O)=O)nn1C
1.03

Any idea what its normalized growth is? The compound is COc1cc2c(cc1-c1cc3cc4ccoc4cc3oc1=O)OCO2
0.999

Any idea what its normalized growth is? The compound is C[C@@H](N)[C@@H](O)c1ccccc1
0.964

Any idea what its normalized growth is? The compound is N[C@@H](Cc1cc(I)c(Oc2ccc(O)c(I)c2)c(I)c1)C(=O)O
0.984

Any idea what its normalized growth is? The compound is C[C@]12C=CC(=O)C=C1CCC1C3C[C@@H](O)[C@](O)(C(=O)CO)[C@@]3(C)C[C@H](O)[C@@]12F (stereo partly specified)
0.991

Any idea what its normalized growth is? The compound is Cc1nc2sccn2c(=O)c1CCN1CCC(=C(c2ccc(F)cc2)c2ccc(F)cc2)CC1
0.816

Any idea what its normalized growth is? The compound is CC(=O)O[C@H]1CC[C@]2(C)C3=CC(=O)[C@@]4(C)C(C[C@@H]5OC6(OCC(C)CC6Br)[C@@H](C)[C@@H]54)C3CC[C@H]2C1 (stereo partly specified)
0.993

Any idea what its normalized growth is? The compound is CCCCC[C@H](CC(=O)NO)C(=O)N[C@H](C(=O)N1CCC[C@H]1CO)C(C)C
1.02

Any idea what its normalized growth is? The compound is CC(CN(C)C)CN1c2ccccc2CCc2ccccc21 (stereo unspecified)
1.02

Any idea what its normalized growth is? The compound is CCN(CC)CCOC(=O)C(c1ccccc1)c1ccccc1
0.98

Any idea what its normalized growth is? The compound is NC(N)=NCCC[C@@H](NC(=O)[C@@H](N)Cc1ccc(O)cc1)C(=O)O
1.01

Any idea what its normalized growth is? The compound is CC(=O)Nc1nnc(S(N)(=O)=O)s1
0.904

Any idea what its normalized growth is? The compound is NCCCCC(N)C(=O)NC(Cc1ccc(O)cc1)C(=O)NC(CCCCN)C(=O)O (stereo not drawn) (H-Lys-Tyr-Lys-OH; configuration not given here)
0.981

Any idea what its normalized growth is? The compound is N#C/C(=C\c1cccc(O)c1)C(=O)O
1.05

Any idea what its normalized growth is? The compound is C=C1C2=CC(=O)O[C@@H](c3ccoc3)[C@]2(C)CCC1[C@@]1(C)C=CC(=O)C(C)(C)[C@@H]1CC(=O)OC (stereo partly specified)
0.989

Any idea what its normalized growth is? The compound is CC(CN1c2ccccc2Sc2cccnc21)N(C)C (stereo unspecified)
0.995

Any idea what its normalized growth is? The compound is O=C(O)CCCOc1ccc(Cl)cc1Cl
1.01

Any idea what its normalized growth is? The compound is O=C(Nc1ccccc1)Nc1ccccc1
0.976

Any idea what its normalized growth is? The compound is Cc1cc(O)c(C=O)c2c1C(=O)Oc1c(C)c(O)c3c(c1O2)C(O)OC3=O (stereo unspecified)
0.966

Any idea what its normalized growth is? The compound is O=C(Nc1ccccc1)c1ccccc1O
0.941

Any idea what its normalized growth is? The compound is C=C1C(C2(C)C=CC(=O)C(C)(C)C2CC(=O)OC)CC[C@@]2(C)[C@H](c3ccoc3)OC(=O)C3OC132 (stereo partly specified)
0.993

Any idea what its normalized growth is? The compound is NC(Cc1ccc(F)cc1)C(=O)O (stereo unspecified)
1.02

Any idea what its normalized growth is? The compound is Cc1nc2ccccn2c(=O)c1CCN1CCC(C(=O)c2ccc(F)cc2)CC1
0.966

Any idea what its normalized growth is? The compound is CN(C)C(=O)Nc1ccc(Cl)c(Cl)c1
0.987

Any idea what its normalized growth is? The compound is CN(C)CCOC(=O)C(c1ccccc1)C1(O)CCCC1 (stereo unspecified)
1.02

Any idea what its normalized growth is? The compound is C=C1[C@H]2CC[C@@]3(C)[C@H](c4ccoc4)OC(=O)C[C@]13O[C@H]1C[C@H](O)C(C)(C)[C@H](CC(=O)OC)[C@]12C
1.01

Any idea what its normalized growth is? The compound is NCC(CC(=O)O)c1ccc(Cl)cc1 (stereo unspecified)
1

Any idea what its normalized growth is? The compound is COc1c2ccoc2nc2c(OC)c(OCC(O)C(C)(C)O)ccc12 (stereo unspecified)
0.961

Any idea what its normalized growth is? The compound is NC(N)=O
0.992

----------
Field: normalized growth. Provide a value for each of the compounds that follow.
experiment: chemical genetic growth profiling, strain panel (AID 1159580);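 note: tested at 20 µM; growth read once vehicle control cultures reached saturation at 30 °C; 1 = growth at the plate median or of vehicle wells; lower values mean less growth of the strain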; details: S. cerevisiae deletion strains, growth OD, locus YBR229C, strain ROT2, active compounds read low
Screen size: about 5,500 compounds; about 2,000 (36%) were called active. Another 18% or so got no clear call; they are omitted. Some of the results follow.
I'd appreciate a reply containing only the number, no unit.

Any idea what its normalized growth is? The compound is O=C(Nc1ccccc1)NC1CCCC1
0.983

Any idea what its normalized growth is? The compound is Nc1ccncc1
0.985

Any idea what its normalized growth is? The compound is CNCCCN1c2ccccc2CCc2ccccc21
1.01

Any idea what its normalized growth is? The compound is CCc1ccccc1NC(C)=O
1

Any idea what its normalized growth is? The compound is CC(CN1c2ccccc2Sc2ccccc21)N(C)C (centres undefined)
0.95

Any idea what its normalized growth is? The compound is Cc1cccc(Nc2ccncc2S(=O)(=O)NC(=O)NC(C)C)c1
1.01

Any idea what its normalized growth is? The compound is CCCCCC1C(=O)CCC1CC(=O)O (centres undefined)
1

Any idea what its normalized growth is? The compound is CC(=O)Nc1ccccc1
0.957

Any idea what its normalized growth is? The compound is CC(CN(C)C)CN1c2ccccc2CCc2ccccc21 (centres undefined)
1.01

Any idea what its normalized growth is? The compound is CCN(CC)C(C)CN1c2ccccc2Sc2ccccc21 (centres undefined)
0.982

Any idea what its normalized growth is? The compound is CCCCCC1C(=O)CCC1CC(=O)OC (centres undefined)
0.991

Any idea what its normalized growth is? The compound is O=C(Nc1ccccc1)Nc1ccccc1
1

Any idea what its normalized growth is? The compound is CC12CC3CC(C)(C1)CC(N)(C3)C2
0.997

Any idea what its normalized growth is? The compound is CCC(=O)c1ccc2c(c1)N(CC(C)N(C)C)c1ccccc1S2 (centres undefined)
0.994

These measurements were taken from PubChem BioAssay AID1159580.
